measured on: T1, REV7^WT (human, UniProt Q9UI95 1-211)
T1 construct: REV7 (MAD2L2), human; The methods say in general that the MBP or GST tag was cleaved with PreScission protease; here the protein is labelled without a tag; also called MAD2L2; wild-type REV7; source: E. coli LOBSTR, purified (metal chelating column, tag cleavage, SEC); not shown: hexahistidine-MBP or GST, N-terminal, cleaved
assay procedure: SPR; SHLD3^1–62 or REV3^1871–2014 immobilised on SCR HC30M chip by EDC-NHS; REV7 injected in two-fold dilutions; buffer B with 0.05% Tween 20
particulars: both partners purified
pKd: −log10 of the molar value.
quantity kind: pKd

1) SHLD3^1–62 (domain or fragment, human, UniProt Q6ZNX1 1-62, looked up, the methods say in general that tags were cleaved; also called SHLD3^RBM; source: E. coli LOBSTR, purified; not shown: hexahistidine-MBP or GST, N-terminal, cleaved) MTTEVILHYRPCESDPTQLPKIAEKAIQDFPTRPLSRFIPWFPYDGSKLPLRPKRSPPVISE :: ~7.30

Just for reference, paper PMC10082759 is where these values come from.
